Notes on CC50 obtained with M14.
Express it in µM; write the number only.

>  <mol>
C=C1C(=O)O[C@H]2[C@H]1CC/C(COC(=O)CCC(=O)NCCCCCCCCNC(=O)CCC(=O)OC/C1=C/CC[C@@]3(C)O[C@H]3[C@H]3OC(=O)C(=C)[C@@H]3CC1)=C\CC[C@@]1(C)O[C@@H]21

>  <endpoint-unit>
µM

>  <CC50>
8.02

$$$$

# ---- query compound ----
Data request: Provide measured CC50 on M14 for C=C1C(=O)O[C@H]2[C@H]1CC/C(COC(=O)CCC(=O)NCCCCCCCCCNC(=O)CCC(=O)OC/C1=C/CC[C@@]3(C)O[C@H]3[C@H]3OC(=O)C(=C)[C@@H]3CC1)=C\CC[C@@]1(C)O[C@@H]21 please.
Data returned: 8.05

* * *

Please consider the recorded CC50 for K-562 in what follows.

>  <molecule>
C=C1C(=O)O[C@H]2[C@H]1CC/C(COC(=O)CCC(=O)NCCCCCCCCNC(=O)CCC(=O)OC/C1=C/CC[C@@]3(C)O[C@H]3[C@H]3OC(=O)C(=C)[C@@H]3CC1)=C\CC[C@@]1(C)O[C@@H]21 [JVM 2-87]

>  <assayed-system>
K-562

>  <CC50>
> 100 µM

$$$$

Data request: Give the reported CC50 for this molecule. C=C1C(=O)O[C@H]2[C@H]1CC/C(COC(=O)CCC(=O)NCCCCCCCCCNC(=O)CCC(=O)OC/C1=C/CC[C@@]3(C)O[C@H]3[C@H]3OC(=O)C(=C)[C@@H]3CC1)=C\CC[C@@]1(C)O[C@@H]21 [JVM 2-92]
Data returned: > 100 µM

* * *

Tested on: HS 578T
experimental-details: NCI 60 cell line five dose, Breast Cancer
measurement-conditions: read-out: LC50; HS578T; molar
observation-type: CC50

Data request: Entry C=C1C(=O)O[C@H]2[C@H]1CC/C(COC(=O)NCCCCCCCCNC(=O)OC/C1=C/CC[C@@]3(C)O[C@H]3[C@H]3OC(=O)C(=C)[C@@H]3CC1)=C\CC[C@@]1(C)O[C@@H]21 [JVM 3-62] needs its CC50 filled in; supply it.
Data returned: > 100 µM

* * *

# collection of CC50 values tested on NCI-H226
Response body: numeric value in µM, unit text excluded.

Data request: Provide CC50, system NCI-H226, entry C=C1C(=O)O[C@H]2[C@H]1CC/C(COC(=O)CCC(=O)NCCCCCCCCNC(=O)CCC(=O)OC/C1=C/CC[C@@]3(C)O[C@H]3[C@H]3OC(=O)C(=C)[C@@H]3CC1)=C\CC[C@@]1(C)O[C@@H]21
Data returned: 15.7

Data request: Write CC50 of C=C1C(=O)O[C@H]2[C@H]1CC/C(COC(=O)CCC(=O)NCCCCCCCCCNC(=O)CCC(=O)OC/C1=C/CC[C@@]3(C)O[C@H]3[C@H]3OC(=O)C(=C)[C@@H]3CC1)=C\CC[C@@]1(C)O[C@@H]21 ; system used: NCI-H226
Data returned: 8.6

* * *

Tested on: HOP-92
experimental-details: NCI 60 cell line five dose, Non-Small Cell Lung Cancer
measurement-conditions: read-out: LC50, molar
observation-type: CC50 (nM)
// units = nM; emit number, no label

Data request: Using the record for C=C1C(=O)O[C@H]2[C@H]1CC/C(COC(=O)NCCCCCCCCNC(=O)OC/C1=C/CC[C@@]3(C)O[C@H]3[C@H]3OC(=O)C(=C)[C@@H]3CC1)=C\CC[C@@]1(C)O[C@@H]21 , state its measured CC50.
Data returned: 2290

Source listed as patent US10118935B2.
